Substrate Selectivity: Ki_AMP-pNP/Ki_cGAMP values for the compounds below.
target.under.test: ENPP1 (Homo sapiens, UniProt P22413)
protocol.notes: Substrate selectivity ratio, inhibition of cGAMP hydrolysis versus ATP hydrolysis
Assay type: biochemical
settings: ratio Ki AMP-pNP / Ki cGAMP
readout.label: Substrate Selectivity: Ki_AMP-pNP/Ki_cGAMP

compound: COc1cc(F)c2c(-c3ccc(CNS(N)(=O)=O)cc3)ccnc2c1
recorded.result: >95

compound: COc1cc2c(N3CCC(CCNS(N)(=O)=O)CC3)ncnc2cc1Cl
recorded.result: > 8.00

compound: N#Cc1cnc2cc(OC(F)F)ccc2c1-c1ccc2c(c1)CN(S(N)(=O)=O)CC2
recorded.result: >173

compound: COc1cc2ncnc(NC(C)c3ccc(NS(N)(=O)=O)cc3)c2cc1OC (stereo in doubt) [Example 254]
recorded.result: > 31.4

compound: COc1cc2ncnc(N3CCC(CNS(N)(=O)=O)CC3)c2cc1OC
recorded.result: 38.5

compound: COc1ccc2c(Oc3ccc(NS(N)(=O)=O)cc3)c(C(F)(F)F)cnc2c1
recorded.result: >14

compound: COc1cc2ncnc(N3CCC(CCN(O)C=O)CC3)c2cc1OC
recorded.result: 26.4

compound: COc1cc2nccc(Oc3ccc(NS(=O)(=O)c4ccccc4)cc3)c2cc1OC
recorded.result: >43.2

compound: COc1ccc2c(-c3ccc(CNS(N)(=O)=O)cc3)ccnc2n1
recorded.result: 28.0

compound: COc1cc2nccc(Nc3ccc(NS(N)(=O)=O)cc3)c2cc1OC
recorded.result: >69.1

compound: COc1cc2ncnc(N3CCC4(CC3)CCN(S(N)(=O)=O)C4)c2cc1OC
recorded.result: 19.2

compound: COc1ccc2ncnc(N3CCC4(CC3)CCN(S(N)(=O)=O)C4)c2c1
recorded.result: 15.5

compound: COc1cc2ccc(=O)n(Cc3ccc(NS(N)(=O)=O)cc3)c2cc1OC
recorded.result: >134

compound: COc1cc2nccc(N3CCC4(CC3)CCN(S(N)(=O)=O)C4)c2cc1OC
recorded.result: 13.9

compound: COc1cc2ncnc(NCc3ccc(NS(N)(=O)=O)cc3)c2cc1OC
recorded.result: 17.4

====

target.under.test: ENPP1 (Homo sapiens)
protocol.notes: Indirect quantitation of 2',3'-cGAMP hydrolysis (AMP-Glo Assay kit)
Format: biochemical
settings: cGAMP substrate; Ki from IC50 by Cheng-Prusoff; read-out: ENPP1 Inhibition -cGAMP: Ki
Ki values for the compounds below.
readout.label: Ki

compound: Cn1cnc2c(N3CCC(CCNS(N)(=O)=O)CC3)ncnc21
recorded.result: > 1000 nM

compound: COc1cc2c(Oc3ccc(NS(N)(=O)=O)cc3)ccnc2cn1
recorded.result: > 1000 nM

compound: COc1cc2ncnc(N3CCC(CCC(=O)O)CC3)c2cc1OC
recorded.result: 100 to 1000 nM

compound: COc1cc2nccc(-c3ccc4c(c3)CCN(S(N)(=O)=O)C4)c2cc1OC
recorded.result: < 100 nM

compound: COc1cc2nc(-c3ccccn3)nc(N3CCC(CCNS(N)(=O)=O)CC3)c2cc1OC
recorded.result: > 1000 nM

compound: COc1cc2nccc(N3CCC(CCNS(=O)(=O)NC(C)=O)CC3)c2cc1OC
recorded.result: 100 to 1000 nM

compound: NS(=O)(=O)Nc1ccc(Nc2ncnc3ncccc23)cc1
recorded.result: 100 to 1000 nM

compound: Cc1ncnc(N2CCC(NS(N)(=O)=O)CC2)c1C
recorded.result: > 1000 nM

compound: COc1ccc2c(Sc3ccc(NS(N)(=O)=O)cc3)ccnc2c1
recorded.result: < 100 nM

compound: COc1cc2nccc(N3CCC(CCNS(=O)(=O)N4CCOCC4)CC3)c2cc1OC
recorded.result: 100 to 1000 nM

compound: COc1cc2ncnc(-c3ccc4c(c3)CCN(S(N)(=O)=O)C4)c2cc1OC
recorded.result: < 100 nM

compound: COc1cc2nccc(Oc3ccc(S(N)(=O)=O)cc3)c2cc1OC
recorded.result: < 100 nM

compound: COc1cc2ncnc(NC(C)(C)c3ccc(NS(N)(=O)=O)cc3)c2cc1OC
recorded.result: > 1000 nM

compound: COc1cc2nccc(N3CCc4cc(NS(N)(=O)=O)ccc43)c2cc1OC
recorded.result: < 100 nM

compound: COc1cc2ncc(F)c(-c3ccc(CNS(N)(=O)=O)cc3)c2cc1OC
recorded.result: < 100 nM

compound: COc1ccc2c(Oc3ccc(NS(N)(=O)=O)c(C)c3)ccnc2c1
recorded.result: < 100 nM

compound: COc1cc2c(N3CCC(CCNS(N)(=O)=O)CC3)ncnc2cc1Cl
recorded.result: 100 to 1000 nM

compound: COc1cc2ncnc(-c3ccc(CCNS(N)(=O)=O)cc3)c2cc1OC
recorded.result: < 100 nM

compound: COc1cc2nccc(-c3ccc(CNS(N)(=O)=O)cc3)c2cc1F
recorded.result: < 100 nM

compound: Cn1cnc2nccc(-c3ccc4c(c3)CN(S(N)(=O)=O)CC4)c21
recorded.result: < 100 nM

compound: COc1cc2ncnc(NC(C)c3ccc(NS(N)(=O)=O)cc3)c2cc1OC (stereo not shown) [Example 140]
recorded.result: < 100 nM

compound: NS(=O)(=O)N1CCC2(CCN(c3ncnc4ccc(F)cc34)CC2)C1
recorded.result: < 100 nM

compound: COc1ccc(-c2cc(N3CCC(CNS(N)(=O)=O)CC3)ncn2)cc1OC
recorded.result: > 1000 nM

compound: COc1cc2ncnc(N3CCC(CCN(C)C)CC3)c2cc1OC
recorded.result: 100 to 1000 nM

compound: COc1ccc2c(Oc3ccc(NS(N)(=O)=O)cc3)ncnc2n1
recorded.result: < 100 nM

compound: COc1cc2ncnc(Oc3ccc(NS(N)(=O)=O)cc3)c2cc1OC
recorded.result: 100 to 1000 nM

compound: COc1cc2ncnc(NCc3ccc(S(N)(=O)=O)cc3)c2cc1OC
recorded.result: < 100 nM

compound: COc1ccc2c(-c3ccc(CNS(N)(=O)=O)cc3Cl)ccnc2c1
recorded.result: < 100 nM

compound: COc1cc2ncnc(N3CCC(CCNS(C)(=O)=O)CC3)c2cc1OC
recorded.result: 100 to 1000 nM

compound: COc1cc2ncnc(N3CCC(CCC(=O)NO)CC3)c2cc1OC
recorded.result: < 100 nM

compound: COc1ccc2c(-c3ccc(NS(N)(=O)=O)cc3)ccnc2c1
recorded.result: 100 to 1000 nM

====

target.under.test: ENPP1 (Homo sapiens, UniProt P22413)
protocol.notes: ENPP1 enzyme assay with AMP-pNP substrate (hydrolysis of ATP analog)
Assay type: biochemical
settings: AMP-pNP substrate (ATP analog); Ki from IC50 by Cheng-Prusoff; read-out: ENPP1 Inhibition _AMP-pNP: Ki
pKi: −log10 of the molar value.
pKi values for the compounds below.
readout.label: pKi

compound: COc1cc2nccc(Oc3ccc(NS(=O)(=O)C4CCC4)cc3)c2cc1OC
recorded.result: < 6.00
//
compound: COc1cc2nccc(OC3CCC(NS(N)(=O)=O)C3)c2cc1OC (stereo not drawn)
recorded.result: < 6.00
//
compound: COc1cc2nccc(Oc3c(F)cc(NS(N)(=O)=O)cc3F)c2cc1OC
recorded.result: < 6.00

====

target.under.test: ENPP1 (Homo sapiens)
Sequence (P22413 1-925): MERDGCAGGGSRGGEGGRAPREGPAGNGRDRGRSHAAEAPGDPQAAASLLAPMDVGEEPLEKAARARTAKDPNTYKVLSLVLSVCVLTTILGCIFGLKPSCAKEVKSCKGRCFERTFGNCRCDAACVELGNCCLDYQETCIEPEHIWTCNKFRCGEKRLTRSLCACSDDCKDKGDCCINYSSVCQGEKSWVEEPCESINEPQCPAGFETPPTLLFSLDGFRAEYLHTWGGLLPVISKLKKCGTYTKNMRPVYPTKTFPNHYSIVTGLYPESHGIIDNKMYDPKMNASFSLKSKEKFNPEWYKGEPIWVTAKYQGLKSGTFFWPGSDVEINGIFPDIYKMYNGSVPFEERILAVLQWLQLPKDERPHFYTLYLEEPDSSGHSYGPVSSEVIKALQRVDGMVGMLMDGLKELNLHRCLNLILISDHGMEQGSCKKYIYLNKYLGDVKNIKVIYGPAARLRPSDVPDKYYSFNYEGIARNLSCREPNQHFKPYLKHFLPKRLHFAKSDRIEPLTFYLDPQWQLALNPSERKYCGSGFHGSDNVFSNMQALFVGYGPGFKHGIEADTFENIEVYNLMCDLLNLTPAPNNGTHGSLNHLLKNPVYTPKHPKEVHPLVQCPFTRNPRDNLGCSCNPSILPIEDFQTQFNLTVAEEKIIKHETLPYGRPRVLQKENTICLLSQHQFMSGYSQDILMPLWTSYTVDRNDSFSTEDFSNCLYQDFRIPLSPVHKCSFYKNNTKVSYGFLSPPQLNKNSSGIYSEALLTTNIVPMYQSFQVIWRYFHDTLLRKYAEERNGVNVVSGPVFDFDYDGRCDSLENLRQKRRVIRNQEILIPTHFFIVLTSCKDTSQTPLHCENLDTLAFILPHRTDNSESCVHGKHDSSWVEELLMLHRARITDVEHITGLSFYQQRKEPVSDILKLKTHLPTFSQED
protocol.notes: Substrate selectivity ratio, inhibition of cGAMP hydrolysis versus ATP hydrolysis
Format: biochemical
settings: ratio Ki AMP-pNP / Ki cGAMP
Substrate Selectivity: Ki_AMP-pNP/Ki_cGAMP values for the molecules below.
readout.label: Substrate Selectivity: Ki_AMP-pNP/Ki_cGAMP

smiles: COc1ccc2c(-c3ccc(CN(C)S(N)(=O)=O)cc3)ccnc2c1
recorded.result: >7

smiles: COc1cc2c(N3CCC(CCNS(N)(=O)=O)CC3)c(C#N)cnc2cn1
recorded.result: > 72.3

smiles: COc1ccc2c(-c3ccc(CNS(N)(=O)=O)cc3)c(F)cnc2c1
recorded.result: >38
